Target: IDO (Homo sapiens)
Sequence (P14902 whole entry): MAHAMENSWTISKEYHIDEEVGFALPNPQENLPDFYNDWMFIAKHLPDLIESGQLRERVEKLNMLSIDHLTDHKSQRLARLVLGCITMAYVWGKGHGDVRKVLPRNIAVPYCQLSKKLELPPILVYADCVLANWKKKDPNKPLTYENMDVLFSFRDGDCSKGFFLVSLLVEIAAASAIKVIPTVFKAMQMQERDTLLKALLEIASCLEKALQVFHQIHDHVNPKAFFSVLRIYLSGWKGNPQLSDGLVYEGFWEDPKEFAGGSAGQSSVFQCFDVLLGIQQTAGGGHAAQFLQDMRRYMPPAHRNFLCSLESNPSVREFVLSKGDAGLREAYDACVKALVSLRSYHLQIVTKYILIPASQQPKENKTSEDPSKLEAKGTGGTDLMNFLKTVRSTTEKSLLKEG
Assay: SKOV3 kynurenine cell-based assay (IDO induced by IFN-γ)
Parameters: IDO expression was induced in the SKOV3 cells by the addition of 500 ng/ml IFN-γ; endogenous in cells; host or cells: SKOV3 (human ovarian adenocarcinoma), induced with IFN-γ
Settings: SKOV3 human ovarian adenocarcinoma cells, 500 ng/ml IFN-γ, 48 hours, 500 μM L-tryptophan; read-out: SKOV3 Kynurenine cell based assay pIC50 (converted)
Provide the recorded IC50 for the entries that follow.

Quick note, IC50 for CCC(=O)N1CCN(c2cc(Cl)cc3[nH]ncc23)CC1 [Compound 109] landed at 3.24 to 31.6 µM

Quick note, IC50 for CS(=O)(=O)N1CCN(c2cc(Cl)cc3[nH]ncc23)CC12CCC2 [Compound 181] landed at < 3.16 µM

Quick note, IC50 for CC1(C)CN(c2cc(OC(F)(F)F)cc3[nH]ncc23)CCN1S(C)(=O)=O [Compound 219] landed at 3.24 to 31.6 µM

Quick note, IC50 for CC(=O)N1CCN(c2cc(Cl)cc3[nH]ncc23)CC12CCC2 [Compound 182] landed at 3.24 to 31.6 µM

Quick note, IC50 for CC(=O)N(C)CC1CCN(c2cc(Cl)cc3[nH]ncc23)CC1 [Compound 282] landed at 3.24 to 31.6 µM

Quick note, IC50 for CS(=O)(=O)Nc1ccc2c(c1)CCN(c1cc(Cl)cc3[nH]ncc13)C2 [Compound 342] landed at 3.24 to 31.6 µM

Quick note, IC50 for CC(=O)N1CCC(n2cc(-c3cc(Cl)cc4[nH]ncc34)cn2)CC1 [Compound 348] landed at 3.24 to 31.6 µM

Quick note, IC50 for O=C1CN(c2cc(Cl)cc3[nH]ncc23)CCN1 [Compound 318] landed at > 100 µM

Quick note, IC50 for CS(=O)(=O)c1ccc(-c2cc(Cl)cc3[nH]ncc23)c(Cl)c1 [Compound 384] landed at 3.24 to 31.6 µM

Quick note, IC50 for CC(=O)N1CCN(c2cc(C(C)C)cc3[nH]ncc23)CC1 [Compound 68] landed at > 100 µM

Quick note, IC50 for CN1C(=O)NC2(CCN(c3cc(Cl)cc4[nH]ncc34)CC2)C1=O [Compound 144] landed at < 3.16 µM

Quick note, IC50 for CC(=O)N1CCN(c2cc(Cl)cc3c(N)noc23)CC1(C)C [Compound 305] landed at 32.4 to 100 µM

Quick note, IC50 for COCCc1cc(Cl)cc2[nH]ncc12 [Compound 288] landed at > 100 µM

Quick note, IC50 for CN1CCN(c2cc(Cl)cc3[nH]ncc23)CC1(C)C [Compound 164] landed at 32.4 to 100 µM

Quick note, IC50 for Cc1nc2c(n1C)CN(c1cc(Cl)cc3[nH]ncc13)CC2 [Compound 356] landed at 3.24 to 31.6 µM

Quick note, IC50 for O=C(c1cc(Cl)cc2[nH]ncc12)N1CCCCC1 [Compound 274] landed at 32.4 to 100 µM

Quick note, IC50 for CC(=O)N1[C@H](C)CN(c2cc(Cl)cc3[nH]ncc23)C[C@@H]1C [Compound 113] landed at 3.24 to 31.6 µM

Quick note, IC50 for Clc1cc(N2CCN(c3ncccn3)CC2)c2cn[nH]c2c1 [Compound 309] landed at > 100 µM

Quick note, IC50 for O=S1(=O)CCC2CN(c3cc(Cl)cc4[nH]ncc34)CCN21 (stereo not shown) [Compound 89] landed at 3.24 to 31.6 µM
